- Study target: T1, human VPAC2 receptor (human, UniProt P41587 24-438)
- T1 sequence (looked up): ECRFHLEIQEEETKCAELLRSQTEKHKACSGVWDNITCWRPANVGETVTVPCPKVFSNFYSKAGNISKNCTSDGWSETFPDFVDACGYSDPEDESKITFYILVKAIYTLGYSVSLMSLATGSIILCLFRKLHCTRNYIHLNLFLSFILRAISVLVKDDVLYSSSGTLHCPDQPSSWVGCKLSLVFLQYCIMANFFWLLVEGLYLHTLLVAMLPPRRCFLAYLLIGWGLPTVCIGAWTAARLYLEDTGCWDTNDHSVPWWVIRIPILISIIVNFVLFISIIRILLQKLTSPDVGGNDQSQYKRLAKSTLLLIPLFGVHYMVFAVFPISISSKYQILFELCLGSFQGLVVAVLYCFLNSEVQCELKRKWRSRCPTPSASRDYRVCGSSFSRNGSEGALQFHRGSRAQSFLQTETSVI
- Procedure details: cell-based or functional assay
Assay endpoint: Human VPAC2 Receptor: Alphascreen (EC50; nM)

Binder	Observed value
HSDAVFTEQYTXLRXQVAXXXYLQSIXXGGPSSGAPPPC (C6-HSDAVFTEQY(OMe)TOrnLRAibQVAK(CO(CH2)2SPEG20K)AibOrnYLQSIOrnOrnGGPSSGAPPPC(PEG20K)-NH2) [P492]	510
HSDAVFTEQYTXLRXQVAAXXYLQSXXXGGPSSGAPPPC (C6-HSDAVFTEQY(OMe)TOrnLRAibQVAAAibOrnYLQSK(CO(CH2)2SPEG20K)OrnOrnGGPSSGAPPPC(PEG20K)-NH2) [P497]	176
HSDAVFTEQYTXLRXQVAAXXYLCSIXXGGPSSGAPPPC (C6-HSDAVFTEQY(OMe)TOrnLRAibQVAAAibOrnYLC(PEG20K)SIOrnOrnGGPSSGAPPPC(PEG20K)-NH2) [P501]	131
